test system: Aorta; assay: Potentiation of SNP-induced vasorelaxant activity in Sprague-Dawley rat endothelium-intact aortic rings assessed as reduction in L-phenylephrine hydrochloride-induced contraction at 200 uM relative to SNP; format: functional
observedProperty: Rmax (%)
Expressed in %, but write only the number.

(Q) Query: Rmax; subject: `CCOP(=O)(OCC)C(C)(C)/[N+]([O-])=C/c1ccccc1`
(A) 100

(Q) Repeat for the following compound: `CCOP(=O)(OCC)C(C)(C)/[N+]([O-])=C/c1ccc([N+](=O)[O-])cc1`
(A) 101

(Q) Repeat for the following compound: `CC(C)(C)/[N+]([O-])=C/c1ccccc1`
(A) 98

(Q) Repeat for the following compound: `CCOP(=O)(OCC)C(C)(C)/[N+]([O-])=C/c1ccccc1[N+](=O)[O-]`
(A) 100

(Q) Repeat for the following compound: `CCOP(=O)(OCC)C(C)(C)/[N+]([O-])=C/c1ccccc1C(F)(F)F`
(A) 104

(Q) Repeat for the following compound: `CCOP(=O)(OCC)C(C)(C)/[N+]([O-])=C/c1ccc(O)c(OC)c1`
(A) 100

(Q) Repeat for the following compound: `CCOP(=O)(OCC)C(C)(C)/[N+]([O-])=C/c1cccc(O)c1`
(A) 99

(Q) Repeat for the following compound: `CCOP(=O)(OCC)C(C)(C)/[N+]([O-])=C/c1cc(OC)c(O)c(OC)c1`
(A) 101

(Q) Repeat for the following compound: `CCOP(=O)(OCC)C(C)(C)/[N+]([O-])=C/c1ccc(O)cc1`
(A) 99

(Q) Repeat for the following compound: `CCOP(=O)(OCC)C(C)(C)/[N+]([O-])=C/c1c(C)cccc1C`
(A) 105

====

Consider the following molecules; for each one, report its pIC50.
assay: Antioxidant activity assessed as inhibition of […]-xanthine oxidase system-mediated superoxide formation measured over 7 mins by lucigenin-based chemiluminescence analysis; format: physicochemical
Schema: pIC50 number; meaning minus log10 of the concentration expressed in molar units.

(Q) Query: pIC50; subject: `CCOP(=O)(OCC)C(C)(C)/[N+]([O-])=C/c1ccc(O)c(O)c1`
(A) 6.70

(Q) Repeat for the following molecule: `CCOP(=O)(OCC)C(C)(C)/[N+]([O-])=C/c1ccccc1`
(A) 3.43

(Q) Repeat for the following molecule: `CCOP(=O)(OCC)C(C)(C)/[N+]([O-])=C/c1ccccc1O`
(A) 4.47

(Q) Repeat for the following molecule: `CCOC(=O)c1ccc(/C=[N+](\[O-])C(C)(C)P(=O)(OCC)OCC)cc1`
(A) 5.17

(Q) Repeat for the following molecule: `CCOP(=O)(OCC)C(C)(C)/[N+]([O-])=C/c1c(C)cccc1C`
(A) 3.46

(Q) Repeat for the following molecule: `CCOP(=O)(OCC)C(C)(C)/[N+]([O-])=C/c1cc(O)cc(O)c1`
(A) 3.73

(Q) Repeat for the following molecule: `O=C(O)/C=C/c1ccc(O)c(O)c1`
(A) 7.00

(Q) Repeat for the following molecule: `O=C(O)c1cc(O)c(O)c(O)c1`
(A) 6.15

(Q) Repeat for the following molecule: `CCOP(=O)(OCC)C(C)(C)/[N+]([O-])=C/c1ccc(O)cc1O`
(A) 4.36

(Q) Repeat for the following molecule: `CCOP(=O)(OCC)C(C)(C)/[N+]([O-])=C/c1ccccc1[N+](=O)[O-]`
(A) 4.52
